All values here come from ChEMBL document CHEMBL1821719.

testSummary: Tmax in Sprague-Dawley rat at 5 mg/kg, po
Format: ADME, organism-based
Design: dose 5 mg/kg, route oral
testContext: in vivo
experimentalReadout: Tmax (h)
Output spec: scalar in h, unitless text.

Could you share which Tmax value was measured for "COc1cc(N2CCN(C[C@H](C)O)CC2)ccc1Nc1ncc2ccc(-c3ccccc3N(C)S(C)(=O)=O)n2n1" ?
2

====

testSummary: Drug level in human SUP-M2 cells xenografted SCID mouse tumor at 30 mg/kg, po after 2 hrs by LC/MS analysis
Format: ADME, organism-based, Neoplasm
Parameters: dose 30 mg/kg, route oral
testContext: read-out: Drug uptake
experimentalReadout: concentration at 2 h (ng/g)
Output spec: scalar in ng/g, unitless text.

Could you share which concentration at 2 h value was measured for "COc1cc(N2CCN(C[C@H](C)O)CC2)ccc1Nc1ncc2ccc(-c3ccccc3N(C)S(C)(=O)=O)n2n1" ?
1440

====

testSummary: Plasma concentration in human SUP-M2 cells xenografted SCID mouse at 30 mg/kg, po bid for 12 days measured after 2 hrs of final dose by LC/MS analysis
Type: ADME, organism-based
Set-up: dose 30 mg/kg, route oral
experimentalReadout: concentration at 2 h

Could you share which concentration at 2 h value was measured for "COc1cc(N2CCN(C[C@H](C)O)CC2)ccc1Nc1ncc2ccc(-c3ccccc3N(C)S(C)(=O)=O)n2n1" ?
1580 ng/mL

====

testSummary: Volume of distribution in SCID mouse at 1 mg/kg, iv
Assay type: ADME, organism-based
Set-up: dose 1 mg/kg, route intravenous
testContext: in vivo
experimentalReadout: Vd (L/kg)
Output spec: scalar in L/kg, unitless text.

Could you share which Vd value was measured for "COc1cc(N2CCN(C[C@H](C)O)CC2)ccc1Nc1ncc2ccc(-c3ccccc3N(C)S(C)(=O)=O)n2n1" ?
2.1

====

testSummary: Oral bioavailability in Sprague-Dawley rat at 5 mg/kg
Format: ADME, organism-based
testContext: in vivo
experimentalReadout: bioavailability (%)
Output spec: scalar in %, unitless text.

Could you share which bioavailability value was measured for "COc1cc(N2CCN(C[C@H](C)O)CC2)ccc1Nc1ncc2ccc(-c3ccccc3N(C)S(C)(=O)=O)n2n1" ?
38

====

testSummary: Plasma concentration in human SUP-M2 cells xenografted SCID mouse at 30 mg/kg, po measured after 2 hrs by LC/MS analysis
Type: ADME, organism-based
Design: dose 30 mg/kg, route oral
experimentalReadout: concentration at 2 h (ng/mL)
Output spec: scalar in ng/mL, unitless text.

Could you share which concentration at 2 h value was measured for "COc1cc(N2CCN(C[C@H](C)O)CC2)ccc1Nc1ncc2ccc(-c3ccccc3N(C)S(C)(=O)=O)n2n1" ?
2160

====

testSummary: Drug level in human SUP-M2 cells xenografted SCID mouse tumor at 10 mg/kg, po bid for 12 days measured after 2 hrs of final dose by LC/MS analysis
Assay type: ADME, organism-based, Neoplasm
Set-up: dose 10 mg/kg, route oral
testContext: read-out: Drug uptake
experimentalReadout: concentration at 2 h (ng/g)
Output spec: scalar in ng/g, unitless text.

Could you share which concentration at 2 h value was measured for "COc1cc(N2CCN(C[C@H](C)O)CC2)ccc1Nc1ncc2ccc(-c3ccccc3N(C)S(C)(=O)=O)n2n1" ?
1530

====

testSummary: AUC in SCID mouse at 10 mg/kg, po
Format: ADME, organism-based
Parameters: dose 10 mg/kg, route oral
testContext: plasma
experimentalReadout: AUC (ng·h/mL)
Output spec: scalar in ng·h/mL, unitless text.

Could you share which AUC value was measured for "COc1cc(N2CCN(C[C@H](C)O)CC2)ccc1Nc1ncc2ccc(-c3ccccc3N(C)S(C)(=O)=O)n2n1" ?
2520
